Test system: 134 cancer cell lines
TEST_NAME: Cell viability assay (ATPlite, 72 hours), IC50 on cancer cell line panel
CONDITION_DESCRIPTION: Homo sapiens, LC-2-ad, read-out: IC50 in cell proliferation assay, LC-2/ad cell line (CCDC6-RET)
Rule: IC50 below 200 nM gives Condition met, anything at or above gives Condition not met.

## Task Confirm or reject: IC50 of FC(F)(F)c1ccc(CNc2ccc(Cc3c[nH]c4ncc(Cl)cc34)cn2)cn1 lies strictly below 200 nM
## Result Condition not met

## Task Please let me know if Cc1nc(NC(=O)N2CCC[C@H]2C(N)=O)sc1-c1ccnc(C(C)(C)C(F)(F)F)c1 shows IC50 below 200 nM.
## Result Condition not met

## Task is_below(IC50, 200 nM) for CCc1nc(C(N)=O)c(Nc2ccc(N3CCC(N4CCN(C)CC4)CC3)c(OC)c2)nc1NC1CCOCC1 ?
## Result Condition met

## Task A record lists CC(=O)Nc1cccc(-n2c(=O)n(C3CC3)c(=O)c3c(Nc4ccc(I)cc4F)n(C)c(=O)c(C)c32)c1 . Is its IC50 below 200 nM?
## Result Condition met

## Task I wonder whether O=C(c1ccc(F)c(F)c1Nc1ccc(I)cc1F)N1CC(O)([C@@H]2CCCCN2)C1 has IC50 below 200 nM. Can you tell?
## Result Condition not met

## Task Quick check: IC50 of CO[C@]1(C(=O)N[C@@H](C)c2ccc(-n3cc(F)cn3)nc2)CC[C@H](c2nc(C)cc(Nc3cc(C)[nH]n3)n2)CC1 under 200 nM?
## Result Condition met

----------
EXPERIMENTAL_TARGET: panel of 255 wild-type kinases (Homo sapiens)
TEST_NAME: Kinase panel profiling at 1 µmol/L (MSA or IMAP), percentage inhibition
Type: biochemical
CONDITION_DESCRIPTION: MSK1; 1 µmol/L single concentration; read-out: %-inhibition, MSK1
I'd appreciate it if you could supply inhibition at 1 µM values for the items below.
Answer format: numeric, % implied, no suffix.

Item C[C@H]1Oc2cc(cnc2N)-c2c(nn(C)c2C#N)CN(C)C(=O)c2ccc(F)cc21 ; assay system panel of 255 wild-type kinases (Homo sapiens); inhibition at 1 µM reported as -8

For the compound O=C(Nc1cnn2ccc(N3CCC[C@@H]3c3cc(F)ccc3F)nc12)N1CC[C@H](O)C1 , the measured inhibition at 1 µM on panel of 255 wild-type kinases (Homo sapiens) was -0.0628

GET /values?item= CCN1C(=O)N(c2c(F)c(OC)cc(OC)c2F)Cc2cnc3[nH]c(CN4CCOCC4)cc3c21 &system= panel of 255 wild-type kinases (Homo sapiens) returns inhibition at 1 µM: 3.7

Entry C=CC(=O)N1CCC([C@@H]2CCNc3c(C(N)=O)c(-c4ccc(Oc5ccccc5)cc4)nn32)CC1 ; assay system panel of 255 wild-type kinases (Homo sapiens); inhibition at 1 µM recorded at 0.565

----------
EXPERIMENTAL_TARGET: panel of 255 wild-type kinases (Homo sapiens, UniProt Q15759)
Sequence (Q15759 whole entry): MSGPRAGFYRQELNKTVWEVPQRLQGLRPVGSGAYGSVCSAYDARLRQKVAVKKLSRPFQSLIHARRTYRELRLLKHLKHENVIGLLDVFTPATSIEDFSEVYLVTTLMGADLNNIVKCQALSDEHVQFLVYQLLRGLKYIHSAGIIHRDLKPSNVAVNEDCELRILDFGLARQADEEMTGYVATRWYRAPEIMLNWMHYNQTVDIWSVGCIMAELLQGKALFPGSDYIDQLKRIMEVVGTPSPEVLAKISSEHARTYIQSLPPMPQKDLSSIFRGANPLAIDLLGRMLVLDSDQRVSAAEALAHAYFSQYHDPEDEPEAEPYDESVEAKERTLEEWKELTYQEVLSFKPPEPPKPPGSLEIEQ
TEST_NAME: Kinase panel profiling at 1 µmol/L (MSA or IMAP), percentage inhibition
Type: biochemical
CONDITION_DESCRIPTION: p38β; 1 µmol/L single concentration; read-out: %-inhibition, p38β
Please respond with reported inhibition at 1 µM for every item in the list.
Give the number; % is assumed, so skip it.

inhibition at 1 µM reported for this molecule CCN1CCN(c2ccc(Nc3cc(N(C)C(=O)Nc4c(Cl)c(OC)cc(OC)c4Cl)ncn3)cc2)CC1 : -1.57

Measured inhibition at 1 µM of COc1ccc(CN2C3CC2CN(c2ccc(-c4cc(OCC(C)(C)O)cn5ncc(C#N)c45)cn2)C3)cn1 : -1.85

Item: Cc1nc(NC(=O)N2CCC[C@H]2C(N)=O)sc1-c1ccnc(C(C)(C)C(F)(F)F)c1 | inhibition at 1 µM: 1

In plain terms, FC(F)(F)c1ccc(CNc2ccc(Cc3c[nH]c4ncc(Cl)cc34)cn2)cn1 has a documented inhibition at 1 µM of 0.844

Given item CN1CCN(c2ccc(C(=O)Nc3n[nH]c4ccc(Cc5cc(F)cc(F)c5)cc34)c(NC3CCOCC3)c2)CC1 , the value recorded as its inhibition at 1 µM is 7.47

Value of inhibition at 1 µM reported for the molecule Cn1cc(-c2cc3c(N4CCN(c5ncc([C@@](C)(N)c6ccc(F)cc6)cn5)CC4)ncnn3c2)cn1 is -2.41

Short answer for Cc1cc(Nc2ncnc3ccc(NC4=NC(C)(C)CO4)cc23)ccc1Oc1ccn2ncnc2c1 : inhibition at 1 µM was -3.42

The molecule listed as C[C@H](Nc1ncnc2nc[nH]c12)c1cc2cccc(Cl)c2c(=O)n1-c1ccccc1 has a reported inhibition at 1 µM of 0.677

// inhibition at 1 µM value for C[C@H]1Oc2cc(cnc2N)-c2c(nn(C)c2C#N)CN(C)C(=O)c2ccc(F)cc21 : 1.15

Record summary for O=C(Nc1cnn2ccc(N3CCC[C@@H]3c3cc(F)ccc3F)nc12)N1CC[C@H](O)C1 : reported inhibition at 1 µM = -0.0712

So for COc1cc2ncnc(Nc3ccc(F)c(Cl)c3)c2cc1NC(=O)/C=C/CN1CCCCC1 , the logged inhibition at 1 µM turned out to be 8.44

Kindly note the recorded inhibition at 1 µM for C=CC(=O)N1CCC([C@@H]2CCNc3c(C(N)=O)c(-c4ccc(Oc5ccccc5)cc4)nn32)CC1 , which is 4.54

Memo: CCn1c(=O)c(-c2cc(NC(=O)Nc3ccccc3)c(F)cc2Br)cc2cnc(NC)cc21 , reported inhibition at 1 µM: 88

So, CCN1C(=O)N(c2c(F)c(OC)cc(OC)c2F)Cc2cnc3[nH]c(CN4CCOCC4)cc3c21 ? Its inhibition at 1 µM was 6

Lab book: inhibition at 1 µM of Cn1cnc2c(F)c(Nc3ccc(Br)cc3Cl)c(C(=O)NOCCO)cc21 noted as -1.71

Entry under test: CCc1nc(C(N)=O)c(Nc2ccc(N3CCC(N4CCN(C)CC4)CC3)c(OC)c2)nc1NC1CCOCC1 . Its inhibition at 1 µM was 6

The molecule listed as COC(=O)N[C@@H](C)CNc1nccc(-c2cn(C(C)C)nc2-c2cc(Cl)cc(NS(C)(=O)=O)c2F)n1 shows inhibition at 1 µM equal to 56

Record summary for CO[C@]1(C(=O)N[C@@H](C)c2ccc(-n3cc(F)cn3)nc2)CC[C@H](c2nc(C)cc(Nc3cc(C)[nH]n3)n2)CC1 : reported inhibition at 1 µM = -3.42

Record Cn1cnc2c(F)c(Nc3ccc(Br)cc3F)c(C(=O)NOCCO)cc21 , field inhibition at 1 µM: 0.0465

----------
Would you kindly list inhibition at 1 µM for each of these molecules?
EXPERIMENTAL_TARGET: panel of 255 wild-type kinases (Homo sapiens, UniProt P48729)
Sequence (P48729 whole entry): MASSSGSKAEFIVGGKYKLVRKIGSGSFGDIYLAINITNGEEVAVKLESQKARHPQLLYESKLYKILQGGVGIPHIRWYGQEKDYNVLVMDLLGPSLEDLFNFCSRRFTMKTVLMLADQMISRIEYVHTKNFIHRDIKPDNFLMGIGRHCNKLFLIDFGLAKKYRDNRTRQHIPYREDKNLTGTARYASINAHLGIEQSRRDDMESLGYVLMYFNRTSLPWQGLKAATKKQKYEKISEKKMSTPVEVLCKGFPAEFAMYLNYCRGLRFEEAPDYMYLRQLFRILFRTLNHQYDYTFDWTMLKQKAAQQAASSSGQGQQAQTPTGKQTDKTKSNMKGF
TEST_NAME: Kinase panel profiling at 1 µmol/L (MSA or IMAP), percentage inhibition
Type: biochemical
CONDITION_DESCRIPTION: kinase CK1α; 1 µmol/L single concentration; read-out: %-inhibition at 1 µmol/L, CK1α
Reply with just the number (in %).

Let me check: Cn1cnc2c(F)c(Nc3ccc(Br)cc3F)c(C(=O)NOCCO)cc21 , system panel of 255 wild-type kinases (Homo sapiens, UniProt P48729), measured inhibition at 1 µM is 9

Entry CCn1c(=O)c(-c2cc(NC(=O)Nc3ccccc3)c(F)cc2Br)cc2cnc(NC)cc21 under panel of 255 wild-type kinases (Homo sapiens, UniProt P48729) had inhibition at 1 µM of 11

Note to self: inhibition at 1 µM of C[C@H]1Oc2cc(cnc2N)-c2c(nn(C)c2C#N)CN(C)C(=O)c2ccc(F)cc21 with panel of 255 wild-type kinases (Homo sapiens, UniProt P48729) was -12

Record for Cn1cnc2c(F)c(Nc3ccc(Br)cc3Cl)c(C(=O)NOCCO)cc21 under target or system panel of 255 wild-type kinases (Homo sapiens, UniProt P48729): inhibition at 1 µM reported as -3.42

# lookup: C[C@H](Nc1ncnc2nc[nH]c12)c1cc2cccc(Cl)c2c(=O)n1-c1ccccc1 on panel of 255 wild-type kinases (Homo sapiens, UniProt P48729), inhibition at 1 µM = -2

Record COc1cc2ncnc(Nc3ccc(F)c(Cl)c3)c2cc1NC(=O)/C=C/CN1CCCCC1 ; system panel of 255 wild-type kinases (Homo sapiens, UniProt P48729); inhibition at 1 µM = 8

panel of 255 wild-type kinases (Homo sapiens, UniProt P48729) data for CCN1C(=O)N(c2c(F)c(OC)cc(OC)c2F)Cc2cnc3[nH]c(CN4CCOCC4)cc3c21 ; its inhibition at 1 µM: 2.22

The measured inhibition at 1 µM that COc1ccc(CN2C3CC2CN(c2ccc(-c4cc(OCC(C)(C)O)cn5ncc(C#N)c45)cn2)C3)cn1 showed for panel of 255 wild-type kinases (Homo sapiens, UniProt P48729) is 25

Bench note, panel of 255 wild-type kinases (Homo sapiens, UniProt P48729): CCN1CCN(c2ccc(Nc3cc(N(C)C(=O)Nc4c(Cl)c(OC)cc(OC)c4Cl)ncn3)cc2)CC1 , inhibition at 1 µM reads -7.38

Entry FC(F)(F)c1ccc(CNc2ccc(Cc3c[nH]c4ncc(Cl)cc34)cn2)cn1 under panel of 255 wild-type kinases (Homo sapiens, UniProt P48729) had inhibition at 1 µM of 4.47

Reading of inhibition at 1 µM for Cc1cc(Nc2ncnc3ccc(NC4=NC(C)(C)CO4)cc23)ccc1Oc1ccn2ncnc2c1 with panel of 255 wild-type kinases (Homo sapiens, UniProt P48729): 0.588

Record C=CC(=O)N1CCC([C@@H]2CCNc3c(C(N)=O)c(-c4ccc(Oc5ccccc5)cc4)nn32)CC1 ; system panel of 255 wild-type kinases (Homo sapiens, UniProt P48729); inhibition at 1 µM = -0.607

The reported panel of 255 wild-type kinases (Homo sapiens, UniProt P48729) inhibition at 1 µM of Cn1cc(-c2cc3c(N4CCN(c5ncc([C@@](C)(N)c6ccc(F)cc6)cn5)CC4)ncnn3c2)cn1 is 5

For COC(=O)N[C@@H](C)CNc1nccc(-c2cn(C(C)C)nc2-c2cc(Cl)cc(NS(C)(=O)=O)c2F)n1 on panel of 255 wild-type kinases (Homo sapiens, UniProt P48729), measured inhibition at 1 µM was 36

Cited source: paper PMC9516332
